method: Cytotoxicity against human HepG2 cells assessed as intracellular ATP level at 10 uM after 24 hrs by ATPlite assay relative to control
Format: cell-based
details: read-out: Activity
recorded endpoint: viability at 24 h, 10 µM
Please report the result as a number followed by the unit.

# count of solved cases: 5
{"columns": ["item smiles", "viability at 24 h, 10 µM"],
 "data": [
  ["Cc1cc(OC2CCOCC2)cc(C)c1-c1cccc(COc2ccc(CCC(=O)O)c(F)c2)c1", "60.3%"],
  ["Cc1cccc(Oc2cc(C)c(-c3cccc(COc4ccc(CCC(=O)O)c(F)c4)c3)c(C)c2)n1.Cl", "56.7%"],
  ["Cc1cc(OCCCN2CCCC2=O)cc(C)c1-c1cccc(COc2ccc(CCC(=O)O)c(F)c2)c1", "54.1%"],
  ["Cc1cc(OCC2(O)CCS(=O)(=O)CC2)cc(C)c1-c1cccc(COc2ccc(CCC(=O)O)c(F)c2)c1", "88.6%"],
  ["CCOCCOc1cc(C)c(-c2cccc(CNc3ccc(CCC(=O)O)c(F)c3)c2)c(C)c1.Cl", "9.9%"]
]}

Batch request: viability at 24 h, 10 µM for each of the following compounds.
1. Cc1cc(OC2CCS(=O)(=O)CC2)cc(C)c1-c1cccc(CNc2ccc(CCC(=O)O)c(F)c2)c1
2. CCS(=O)(=O)CCOc1cc(C)c(-c2cccc(CNc3ccc(CCC(=O)O)c(F)c3)c2)c(C)c1
3. Cc1cc(OCC2(O)CCS(=O)(=O)CC2)cc(C)c1-c1cccc(CNc2ccc(CCC(=O)O)c(F)c2)c1

Result:
["78.8%", "79.8%", "88.1%"]

List reported viability at 24 h, 10 µM for each of these compounds:
1. Cc1cc(OC2CCS(=O)(=O)CC2)cc(C)c1-c1cccc(COc2ccc(CCC(=O)O)c(F)c2)c1
2. CCS(=O)(=O)CCOc1cc(C)c(-c2cccc(COc3ccc(CCC(=O)O)c(F)c3)c2)c(C)c1

Result:
79.8%
79.8%

###

target system: Free fatty acid receptor 1 (Homo sapiens, UniProt O14842)
Sequence (O14842 whole entry): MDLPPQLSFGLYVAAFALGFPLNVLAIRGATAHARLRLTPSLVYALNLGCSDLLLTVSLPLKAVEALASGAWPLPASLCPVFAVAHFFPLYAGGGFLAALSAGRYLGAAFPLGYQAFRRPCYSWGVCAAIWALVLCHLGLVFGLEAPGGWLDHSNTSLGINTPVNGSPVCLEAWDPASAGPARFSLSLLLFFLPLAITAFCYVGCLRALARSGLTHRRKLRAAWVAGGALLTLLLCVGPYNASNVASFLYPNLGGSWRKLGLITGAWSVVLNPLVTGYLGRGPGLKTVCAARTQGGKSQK
method: Agonist activity at human GPR40 receptor expressed in CHO cells assessed as increase in intracellular calcium level for 90 secs by FLIPR assay in the presence of 0.1% BSA
In this scheme, each record receives a class according to its EC50; the ranges are A: < 20 nM; B: ≥ 20 nM and < 30 nM; C: ≥ 30 nM

{"columns": ["item smiles", "target system", "cat"],
 "data": [
  ["CCOCCOc1cc(C)c(-c2cccc(COc3ccc(CCC(=O)O)c(F)c3)c2)c(C)c1", "Free fatty acid receptor 1 (Homo sapiens, UniProt O14842)", "A"],
  ["CCS(=O)(=O)CCOc1cc(C)c(-c2cccc(COc3ccc(CCC(=O)O)c(F)c3)c2)c(C)c1", "Free fatty acid receptor 1 (Homo sapiens, UniProt O14842)", "B"],
  ["CCOCCOc1cc(C)c(-c2cccc(COc3ccc(CCC(=O)O)cc3)c2)c(C)c1", "Free fatty acid receptor 1 (Homo sapiens, UniProt O14842)", "A"],
  ["Cc1cccc(Oc2cc(C)c(-c3cccc(COc4ccc(CCC(=O)O)c(F)c4)c3)c(C)c2)n1.Cl", "Free fatty acid receptor 1 (Homo sapiens, UniProt O14842)", "C"],
  ["Cc1cc(OCC2CC2)cc(C)c1-c1cccc(COc2ccc(CCC(=O)O)cc2)c1", "Free fatty acid receptor 1 (Homo sapiens, UniProt O14842)", "A"],
  ["Cc1cc(OC2CCS(=O)(=O)CC2)cc(C)c1-c1cccc(CNc2ccc(CCC(=O)O)c(F)c2)c1", "Free fatty acid receptor 1 (Homo sapiens, UniProt O14842)", "B"],
  ["Cc1cc(OCC2(O)CCS(=O)(=O)CC2)cc(C)c1-c1cccc(CNc2ccc(CCC(=O)O)c(F)c2)c1", "Free fatty acid receptor 1 (Homo sapiens, UniProt O14842)", "B"],
  ["Cc1cccc(C)c1-c1cccc(COc2ccc(CCC(=O)O)cc2)c1", "Free fatty acid receptor 1 (Homo sapiens, UniProt O14842)", "B"]
]}

Query: Class (by measured EC50) for `CCOCCOc1cc(C)c(-c2cccc(CNc3ccc(CCC(=O)O)c(F)c3)c2)c(C)c1.Cl`
Result: B

Query: The entry to classify is `Cc1cc(OC2CCOCC2)cc(C)c1-c1cccc(COc2ccc(CCC(=O)O)c(F)c2)c1` ; which class holds it?
Result: B

Query: Dear colleague, I would appreciate it if you could identify the bin for `COc1cc(C)c(-c2cccc(COc3ccc(CCC(=O)O)cc3)c2)c(C)c1` and reply at your convenience.
Result: A

###

method: Cytotoxicity against human HepG2 cells assessed as intracellular ATP level at 30 uM after 24 hrs by ATPlite assay relative to control
Assay type: cell-based
details: read-out: Activity
I'd be grateful if you could share measured viability at 24 h, 30 µM for these entries.
One number for each entry, in %.

Completed entries (count: 3):
{"columns": ["item smiles", "viability at 24 h, 30 µM / %"],
 "data": [
  ["Cc1cc(OCCCN2CCCC2=O)cc(C)c1-c1cccc(COc2ccc(CCC(=O)O)c(F)c2)c1", 30.3],
  ["Cc1cc(OCC2(O)CCS(=O)(=O)CC2)cc(C)c1-c1cccc(CNc2ccc(CCC(=O)O)c(F)c2)c1", 75.9],
  ["Cc1cc(OC2CCS(=O)(=O)CC2)cc(C)c1-c1cccc(CNc2ccc(CCC(=O)O)c(F)c2)c1", 60.7]
]}

Kindly note the recorded viability at 24 h, 30 µM for `CCOCCOc1cc(C)c(-c2cccc(CNc3ccc(CCC(=O)O)c(F)c3)c2)c(C)c1.Cl` , which is 48.5

###

Test system: HepG2
method: Induction of apoptosis in human HepG2 cells assessed as caspase 3/7 activity at 30 uM after 24 hrs by caspase Glo assay relative to staurosporine
Format: cell-based
details: hepg2, 24 h
Consider the following compounds; for each one, report its Activity.
Numbers only, in %.

{"columns": ["item smiles", "Activity (%)"],
 "data": [
  ["Cc1cc(OC2CCS(=O)(=O)CC2)cc(C)c1-c1cccc(COc2ccc(CCC(=O)O)c(F)c2)c1", 28.9],
  ["Cc1cc(OCCCN2CCCC2=O)cc(C)c1-c1cccc(COc2ccc(CCC(=O)O)c(F)c2)c1", 20.3],
  ["CCOCCOc1cc(C)c(-c2cccc(CNc3ccc(CCC(=O)O)c(F)c3)c2)c(C)c1.Cl", 1.2],
  ["Cc1cc(OCC2(O)CCS(=O)(=O)CC2)cc(C)c1-c1cccc(CNc2ccc(CCC(=O)O)c(F)c2)c1", 0.5],
  ["Cc1cc(OC2CCS(=O)(=O)CC2)cc(C)c1-c1cccc(CNc2ccc(CCC(=O)O)c(F)c2)c1", -0.7]
]}

Reported Activity of `Cc1cccc(Oc2cc(C)c(-c3cccc(COc4ccc(CCC(=O)O)c(F)c4)c3)c(C)c2)n1.Cl` : 41.1

###

Provide the recorded pKi for the entries that follow.
target system: Free fatty acid receptor 1 (Homo sapiens, UniProt O14842)
method: Displacement of 3-[4-({2',6'-dimethyl-6-[(4-[3H])phenylmethoxy]biphenyl-3-yl}methoxy)phenyl] propanoic acid from human GPR40 receptor expressed in CHO cell membrane after 90 mins by liquid scintillation counting in the presence of 0.2% BSA
One number for each entry, as −log10 of the molar value.

Study these solved cases before continuing.
{"columns": ["item smiles", "number"],
 "data": [
  ["Cc1cc(OCC2(O)CCS(=O)(=O)CC2)cc(C)c1-c1cccc(COc2ccc(CCC(=O)O)c(F)c2)c1", 7.72],
  ["CCOCCOc1cc(C)c(-c2cccc(CNc3ccc(CCC(=O)O)c(F)c3)c2)c(C)c1.Cl", 7.74],
  ["Cc1cccc(Oc2cc(C)c(-c3cccc(COc4ccc(CCC(=O)O)c(F)c4)c3)c(C)c2)n1.Cl", 7.92],
  ["Cc1cc(OC2CCOCC2)cc(C)c1-c1cccc(COc2ccc(CCC(=O)O)c(F)c2)c1", 7.70],
  ["Cc1cc(OCC2(O)CCS(=O)(=O)CC2)cc(C)c1-c1cccc(CNc2ccc(CCC(=O)O)c(F)c2)c1", 7.72],
  ["Cc1cccc(C)c1-c1cccc(COc2ccc(CCC(=O)O)cc2)c1C", 7.24]
]}

Give pKi for all compounds that follow.
1. COc1cc(C)c(-c2cccc(COc3ccc(CCC(=O)O)cc3)c2)c(C)c1
2. Cc1cccc(C)c1-c1cccc(COc2ccc(CCC(=O)O)cc2)c1
3. Cc1cc(OCCCN2CCCC2=O)cc(C)c1-c1cccc(COc2ccc(CCC(=O)O)c(F)c2)c1

Result:
[7.60, 7.34, 7.68]

###

Can you tell me logD for the items I'm about to list?
method: Lipophilicity, log D of the compound by RP-HPLC analysis
Type: physicochemical
One number for each entry.

Examples with their reported logD follow.
{"columns": ["item smiles", "number"],
 "data": [
  ["CCS(=O)(=O)CCOc1cc(C)c(-c2cccc(COc3ccc(CCC(=O)O)c(F)c3)c2)c(C)c1", 3.02],
  ["Cc1cc(OCc2ccccc2)cc(C)c1-c1cccc(COc2ccc(CCC(=O)O)cc2)c1", 5.08]
]}

Hi, could you look up logD for each item in my list?
1. Cc1cccc(C)c1-c1cccc(COc2ccc(CCC(=O)O)cc2)c1C
2. Cc1cc(OCCCN2CCCC2=O)cc(C)c1-c1cccc(COc2ccc(CCC(=O)O)c(F)c2)c1
3. CCOCCOc1cc(C)c(-c2cccc(COc3ccc(CCC(=O)O)c(F)c3)c2)c(C)c1
4. COc1cc(C)c(-c2cccc(COc3ccc(CCC(=O)O)cc3)c2)c(C)c1
5. Cc1cc(OCC2CC2)cc(C)c1-c1cccc(COc2ccc(CCC(=O)O)cc2)c1
6. Cc1cccc(C)c1-c1cccc(COc2ccc(CCC(=O)O)cc2)c1

Result:
4.22
3.51
4.14
3.83
4.61
4.04

Respectfully, I request logD for each entry included below.
1. Cc1cc(OC2CCS(=O)(=O)CC2)cc(C)c1-c1cccc(COc2ccc(CCC(=O)O)c(F)c2)c1
2. Cc1cccc(Oc2cc(C)c(-c3cccc(COc4ccc(CCC(=O)O)c(F)c4)c3)c(C)c2)n1.Cl
3. Cc1cc(OCC2(O)CCS(=O)(=O)CC2)cc(C)c1-c1cccc(COc2ccc(CCC(=O)O)c(F)c2)c1
4. COc1ccc(-c2c(C)cccc2C)cc1COc1ccc(CCC(=O)O)cc1
5. CCS(=O)(=O)CCOc1cc(C)c(-c2cccc(CNc3ccc(CCC(=O)O)c(F)c3)c2)c(C)c1
6. CCOCCOc1cc(C)c(-c2cccc(COc3ccc(CCC(=O)O)cc3)c2)c(C)c1
7. COc1ccc(COc2ccc(CCC(=O)O)cc2)cc1-c1c(C)cccc1C
8. CCOCCOc1cc(C)c(-c2cccc(CNc3ccc(CCC(=O)O)c(F)c3)c2)c(C)c1.Cl

Result:
1: 3.06; 2: 4.23; 3: 2.78; 4: 4.04; 5: 2.39; 6: 3.89; 7: 3.38; 8: 3.49
